target: Human recombinant MMP-2 (Homo sapiens); construct: made in house; host or cells: MMP-2-transfected p2AHT2 cells; experiment: In vitro MMP inhibition analysis (fluorogenic peptide substrate cleavage), Ki; assay type: biochemical; details: Table 2
Sequence (P08253 110-660): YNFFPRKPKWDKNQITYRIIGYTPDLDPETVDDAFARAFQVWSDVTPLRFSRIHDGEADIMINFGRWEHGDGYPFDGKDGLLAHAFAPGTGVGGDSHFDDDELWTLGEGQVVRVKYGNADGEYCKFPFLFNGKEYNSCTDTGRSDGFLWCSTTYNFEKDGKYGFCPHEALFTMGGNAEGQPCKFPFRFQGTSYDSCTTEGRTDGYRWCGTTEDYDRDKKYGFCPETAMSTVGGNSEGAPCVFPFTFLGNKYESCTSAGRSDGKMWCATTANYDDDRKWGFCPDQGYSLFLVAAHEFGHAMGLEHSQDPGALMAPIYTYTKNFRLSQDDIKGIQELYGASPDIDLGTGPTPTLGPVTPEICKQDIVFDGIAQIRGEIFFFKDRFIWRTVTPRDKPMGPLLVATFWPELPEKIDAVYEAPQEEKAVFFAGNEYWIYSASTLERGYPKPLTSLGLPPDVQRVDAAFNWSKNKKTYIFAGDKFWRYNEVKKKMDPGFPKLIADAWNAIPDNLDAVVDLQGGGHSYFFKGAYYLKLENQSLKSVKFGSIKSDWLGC
endpoint-label: Ki (pM)

COCCN1CCC(C(=O)NO)(S(=O)(=O)c2ccc(-c3cnc(OCCC4CCCC4)cn3)cc2)CC1	404
O=C(NO)C1(S(=O)(=O)c2ccc(-c3ccc(CCC(F)(F)F)cn3)cc2)CCOCC1	40
COCCN1CCC(C(=O)NO)(S(=O)(=O)c2ccc(-c3cnc(CCC(F)(F)F)cn3)cc2)CC1	2090
O=C(NO)C1(S(=O)(=O)c2ccc(-c3ccc(OC(F)(F)F)cc3)cc2)CCOCC1	98

[1] O=C(N1CCOCC1)N1CCC(C(=O)NO)(S(=O)(=O)c2ccc(-c3ccc(CCC(F)(F)C(F)(F)F)cc3)cc2)CC1
[2] CC(C)(C)CCNc1cnc(-c2ccc(S(=O)(=O)C3(C(=O)NO)CCOCC3)cc2)cn1
[3] O=C(NO)C1(S(=O)(=O)c2ccc(-c3ccc(-n4ccnc4)cc3)cc2)CCOCC1
[4] O=C(NO)C1(S(=O)(=O)c2ccc(-c3ccc(CCC4CCCCC4)cn3)cc2)CCOCC1
Ordering: ascending Ki. Please list the labels in the order you were asked to rank them.
3, 1, 4, 2

[A] O=C(NO)C1(S(=O)(=O)c2ccc(-c3ccc(CCC(F)(C(F)(F)F)C(F)(F)F)cn3)cc2)CCOCC1
[B] O=C(NO)C1(S(=O)(=O)c2ccc(-c3ccc(-c4ccccc4F)cn3)cc2)CCN(C2CC2)CC1
Looking at A and B , which one comes out lower in Ki terms? Bench note: the answer is the label of the chosen record.
B

[a] CC(C)CCNC(=O)c1cnc(-c2ccc(S(=O)(=O)C3(C(=O)NO)CCOCC3)cc2)cn1
[b] CCCCc1nc(-c2ccc(S(=O)(=O)C3(C(=O)NO)CCOCC3)cc2)no1
[c] O=C(NO)C1(S(=O)(=O)c2ccc(-c3ccc(-c4ccccc4)cn3)cc2)CCN(C2CC2)CC1
hey, can you rank those compounds up there by Ki? biggest number first please Please list the labels in the order you were asked to rank them.
b, a, c
(b: 5790 pM, a: 910 pM, c: 150 pM)

[A] CCN1CCC(C(=O)NO)(S(=O)(=O)c2ccc(-c3ccc(Oc4ccccc4)cc3)cc2)CC1
[B] O=C(NO)C1(S(=O)(=O)c2ccc(-c3ccc(OCC(F)(F)C(F)(F)F)c(C(F)(F)F)c3)cc2)CCOCC1
Returns: the argument ( A or B ) having the larger Ki. Bench note: the answer is the label of the chosen record.
B

====

target: Human recombinant MMP-1 (Homo sapiens, UniProt P03956); construct: made in house; host or cells: MMP-1-transfected HT-1080 cells (spent media); assay: In vitro MMP inhibition analysis (fluorogenic peptide substrate cleavage), Ki; format: biochemical; details: Table 1
Sequence (P03956 100-469): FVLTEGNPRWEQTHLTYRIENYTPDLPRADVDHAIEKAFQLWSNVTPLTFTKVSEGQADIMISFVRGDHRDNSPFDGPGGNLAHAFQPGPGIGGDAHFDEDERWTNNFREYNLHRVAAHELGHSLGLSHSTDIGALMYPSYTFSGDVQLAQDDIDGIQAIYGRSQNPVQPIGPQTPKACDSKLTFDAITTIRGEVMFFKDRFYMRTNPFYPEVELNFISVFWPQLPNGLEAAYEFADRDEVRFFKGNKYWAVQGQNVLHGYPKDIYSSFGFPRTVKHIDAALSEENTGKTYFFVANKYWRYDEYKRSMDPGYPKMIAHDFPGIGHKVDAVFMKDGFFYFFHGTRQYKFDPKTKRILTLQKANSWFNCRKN
endpoint-label: Ki (µM)

O=C(NO)C1(S(=O)(=O)c2ccc(-c3ccc(CCCC(F)(F)F)cn3)cc2)CCN(C2CC2)CC1 [Example 51]	9.6

[P] O=C(NO)C1(S(=O)(=O)c2ccc(-c3ccc(OC(F)(F)C(F)F)cc3)cc2)CCN(C2CC2)CC1 [Example 40]
[Q] CCN1CCC(C(=O)NO)(S(=O)(=O)c2ccc(-c3ccc(CCC(C)(F)F)cc3)cc2)CC1 [Example 61]
Returns: the argument ( P or Q ) having the larger Ki. Bench note: the answer is the label of the chosen record.
Q
(Q: 3.04 µM, P: 0.508 µM)

====

molecular target: Human recombinant MMP-14 (Homo sapiens); construct: The catalytic domain enzyme was expressed in E. coli inclusion bodies, solubilized in urea; made in house; experiment: In vitro MMP inhibition analysis (fluorogenic peptide substrate cleavage), Ki; assay type: biochemical; settings: Table 2
endpoint-label: Ki (nM)

O=C(NO)C1(S(=O)(=O)c2ccc(-c3ncc(CCC(F)(F)C(F)(F)F)cn3)cc2)CCOCC1 [Example 137]	2870
O=C(NO)C1(S(=O)(=O)c2ccc(-c3ccc(-c4ccccc4)cn3)cc2)CCN(C2CC2)CC1 [Example 151]	120
COCCOc1ccc(-c2ccc(S(=O)(=O)C3(C(=O)NO)CCN(C4CC4)CC3)cc2)cc1 [Example 113]	499

[P] CC(C)CCc1ccc(-c2ccc(S(=O)(=O)C3(C(=O)NO)CCOCC3)cc2)nc1 [Example 99]
[Q] CCOCCOc1ccc(-c2ccc(S(=O)(=O)C3(C(=O)NO)CCN(CCOC)CC3)cc2)cc1 [Example 117]
[R] COCCOC1CCC(C(=O)NO)(S(=O)(=O)c2ccc(-c3cnc(CCCC(F)(F)F)cn3)cc2)CC1 (stereo not shown) [Example 210]
[S] O=C(NC1CCCC1)c1ccc(-c2ccc(S(=O)(=O)C3(C(=O)NO)CCOCC3)cc2)nc1 [Example 198]
hey, can you rank those compounds up there by Ki? biggest number first please Please list the labels in the order you were asked to rank them.
S, R, Q, P
(S: 5120 nM, R: 3430 nM, Q: 1110 nM, P: 421 nM)

====

target: Human recombinant MMP-9 (Homo sapiens); construct: made in house; host or cells: MMP-9-transfected HT1080 cells (spent media); experiment: In vitro MMP inhibition analysis (fluorogenic peptide substrate cleavage), Ki; type: biochemical; conditions: Table 2
endpoint-label: Ki (nM)

[a] COCCN1CCC(C(=O)NO)(S(=O)(=O)c2ccc(-c3cnc(CCC(F)(F)F)cn3)cc2)CC1
[b] O=C(NO)C1(S(=O)(=O)c2ccc(-c3cnc(OCC4CCC4)cn3)cc2)CCOCC1
[c] COCCN1CCC(C(=O)NO)(S(=O)(=O)c2ccc(-c3cnc(OCC(F)(F)C(F)(F)F)cn3)cc2)CC1
[d] O=C(NO)C1(S(=O)(=O)c2ccc(-c3nc4ccccc4s3)cc2)CCOCC1
[e] O=C(NO)C1(S(=O)(=O)c2ccc(-c3ccc(-c4ccccc4)cc3)cc2)CCOCC1
Hey, quick one: sort these by Ki, low to high? Please list the labels in the order you were asked to rank them.
e, b, c, a, d
(e: 0.074 nM, b: 0.14 nM, c: 0.42 nM, a: 2.05 nM, d: 32.2 nM)

====

biological target: Human recombinant MMP-9 (Homo sapiens, UniProt P14780); construct: made in house; host or cells: MMP-9-transfected HT1080 cells (spent media); assay: In vitro MMP inhibition analysis (fluorogenic peptide substrate cleavage), Ki; format: biochemical; settings: Table 1
Sequence (P14780 107-707 limits assumed): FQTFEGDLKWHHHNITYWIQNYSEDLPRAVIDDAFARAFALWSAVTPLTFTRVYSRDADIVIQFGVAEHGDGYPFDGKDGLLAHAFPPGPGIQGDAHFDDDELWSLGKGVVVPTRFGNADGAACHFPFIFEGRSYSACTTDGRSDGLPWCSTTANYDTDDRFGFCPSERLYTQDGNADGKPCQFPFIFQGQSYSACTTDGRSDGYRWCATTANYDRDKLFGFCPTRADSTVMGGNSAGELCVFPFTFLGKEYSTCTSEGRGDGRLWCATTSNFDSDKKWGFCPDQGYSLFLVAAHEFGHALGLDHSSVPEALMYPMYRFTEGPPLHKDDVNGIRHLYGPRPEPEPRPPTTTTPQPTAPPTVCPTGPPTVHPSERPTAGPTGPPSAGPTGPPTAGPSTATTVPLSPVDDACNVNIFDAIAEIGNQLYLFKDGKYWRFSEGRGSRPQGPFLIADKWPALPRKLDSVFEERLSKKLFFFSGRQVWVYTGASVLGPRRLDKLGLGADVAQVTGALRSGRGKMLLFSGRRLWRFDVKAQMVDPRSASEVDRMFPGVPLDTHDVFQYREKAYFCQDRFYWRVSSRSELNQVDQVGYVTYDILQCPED
pKi: −log10 of the molar value.
endpoint-label: pKi

COCCN1CCC(C(=O)NO)(S(=O)(=O)c2ccc(-c3ccc(CCC(C)(F)F)cc3)cc2)CC1	10.10

[I] O=C(NO)C1(S(=O)(=O)c2ccc(-c3ccc(CCCC(F)(F)F)cc3)cc2)CCOCC1
[II] O=C(NO)C1(S(=O)(=O)c2ccc(-c3cnc(CCC(F)(F)F)cn3)cc2)CCOCC1
Looking at I and II , which one comes out lower in pKi terms? Bench note: the answer is the label of the chosen record.
II

====

Target: Human recombinant MMP-2 (Homo sapiens)
Construct: made in house; host or cells: MMP-2-transfected p2AHT2 cells
Assay: In vitro MMP inhibition analysis (fluorogenic peptide substrate cleavage), Ki
Assay type: biochemical
Details: Table 1
Description: Several compounds and salts were analyzed in an in vitro assay to determine their ability to inhibit the MMP cleavage of peptide substrates. Inhibition constant (Ki) were calculated from the assayed compound-MMP interactions. […] The assays from which the Ki determinations were made were performed as follows. […] In the absence of MMP inhibitory activity, substrate (I) was cleaved at the Gly-Leu bond resulting in an increase of relative fluorescence. […]
pKi: −log10 of the molar value.
endpoint-label: pKi

COCCC(C(=O)NO)S(=O)(=O)c1ccc(-c2ccc(CCCC(F)(F)F)cc2)cc1 (stereo not shown)	8.93

[P] CCN1CCC(C(=O)NO)(S(=O)(=O)c2ccc(-c3ccc(CCC(F)(F)C(F)(F)F)cn3)cc2)CC1
[Q] CCN1CCC(C(=O)NO)(S(=O)(=O)c2ccc(-c3cnc(CCC(C)(F)F)cn3)cc2)CC1
[R] O=C(NO)C1(S(=O)(=O)c2ccc(-c3ccc(CCCC(F)(F)F)cc3)cc2)CCOCC1
hey, can you rank those molecules up there by pKi? biggest number first please Please list the labels in the order you were asked to rank them.
P, R, Q

====

target: Human recombinant MMP-9 (Homo sapiens); construct: made in house; host or cells: MMP-9-transfected HT1080 cells (spent media); assay: In vitro MMP inhibition analysis (fluorogenic peptide substrate cleavage), Ki; type: biochemical; conditions: Table 2
pKi: −log10 of the molar value.
endpoint-label: pKi

CCCCc1nc(-c2ccc(S(=O)(=O)C3(C(=O)NO)CCOCC3)cc2)no1 [Example 105]	8.67

[P] COCCOc1ccc(-c2ccc(S(=O)(=O)C3(C(=O)NO)CCN(CCOC)CC3)cc2)cc1F [Example 114]
[Q] COCC#Cc1cnc(-c2ccc(S(=O)(=O)C3(C(=O)NO)CCOCC3)cc2)cn1 [Example 164]
[R] O=C(CCc1nccs1)c1ccc(-c2ccc(S(=O)(=O)C3(C(=O)NO)CCOCC3)cc2)cc1 [Example 211]
hey, can you rank those compounds up there by pKi? biggest number first please Please list the labels in the order you were asked to rank them.
Q, P, R
(Q: 9.24, P: 8.56, R: 8.01)

Where these numbers come from: patent US20060074243A1
